Catalogue of compounds with associated Papp
# assay notes: passive permeability, PAMPA, ADME assay (AID 1508612)
# run conditions: pH 7.4, 30.0 min, 50.0 µM
# output: bare number, implied unit ×10⁻⁶ cm/s

Consider the reported Papp for these compounds:
Cc1ccc(-c2nc(C)c(C(=O)Nc3ccc4c(c3)C(=O)N3CCC[C@H]3C(=O)N4)s2)cc1: 976
O=C1Nc2ccccc2/C1=C\c1cc(F)c(O)c(F)c1: 26.9
O=C1CCCC2=C1C(c1ncccc1Br)N=C(Nc1nc3ccccc3o1)N2 (stereo not drawn): 371
O=C(c1ccccc1)N1CCC(c2nn(-c3ccc(F)cc3)c(=O)[nH]2)CC1: 679
Cc1cnc(-c2ccccc2C2COC2)nc1NCc1ccc(-c2cccnc2)cc1: 2.87

Request: Hello, please tell me recorded Papp for this one: `O=C(Cc1cccs1)NCc1nnc2ccc(-c3ccccc3)nn12`
Response: 226

Request: Hello, please tell me recorded Papp for this one: `Fc1ccc(Nc2ccnc(-c3ccncc3)n2)cc1F`
Response: 371

====

# assay notes: passive permeability, PAMPA, ADME assay (AID 1508612)
# run conditions: pH 7.4, 30.0 min, 50.0 µM
parameter measured: Papp

Consider the reported Papp for these molecules:
O=C(O)c1cnc(-c2ccc(F)cc2)nc1-c1ccncc1: < 1 ×10⁻⁶ cm/s
O=C(NCCc1ccccc1)C1CCN(c2nc(-c3ccc(Br)cc3)cs2)CC1: < 1 ×10⁻⁶ cm/s

# context switch: different molecule, same Papp
Request: Hello, please tell me recorded Papp for this one: `O=C(Nc1ccc(N2CCN(C(=O)c3ccccc3F)CC2)cc1)c1cncc(Br)c1`
Response: > 1000 ×10⁻⁶ cm/s

====

# assay notes: passive permeability, PAMPA, ADME assay (AID 1508612)
# run conditions: pH 7.4, 30.0 min, 50.0 µM
parameter measured: Papp

CN1CCC(N(Cc2cccs2)c2ccccc2)CC1: > 1000 ×10⁻⁶ cm/s
CC(C)(C)C(=O)N1CCN(c2nccc(Nc3ccccc3Cl)n2)CC1: > 1000 ×10⁻⁶ cm/s

# context switch: different molecule, same Papp
Request: Hello, please tell me recorded Papp for this one: `C=CCc1ccc(O)c(-c2ccc(O)c(CC=C)c2)c1`
Response: > 1000 ×10⁻⁶ cm/s

====

# assay notes: passive permeability, PAMPA, ADME assay (AID 1508612)
# run conditions: pH 7.4, 30.0 min, 50.0 µM
parameter measured: Papp

Nc1c(C(=O)Nc2ccc(Cl)c(C(F)(F)F)c2)sc2nc3c(cc12)N1CCC3CC1: > 1000 ×10⁻⁶ cm/s

Request: Hello, please tell me recorded Papp for this one: `COC(=O)c1ccc(Oc2nc3c(c(=O)n(C)c(=O)n3C)n2CCC(C)C)cc1`
Response: > 1000 ×10⁻⁶ cm/s

Request: Hello, please tell me recorded Papp for this one: `C[C@H]1[C@@H](CCC(=O)Nc2ccc(F)cc2)O[C@@H]2O[C@]3(C)CC[C@@H]4[C@H](C)CC[C@@H]1[C@@]24OO3`
Response: > 1000 ×10⁻⁶ cm/s

Request: Hello, please tell me recorded Papp for this one: `CCCCN1CCC[C@H]1CNC(=O)c1cc(C#N)c2ccccc2c1OC`
Response: > 1000 ×10⁻⁶ cm/s

Request: Hello, please tell me recorded Papp for this one: Cc1cc(Br)ccc1NC(=O)C(NS(=O)(=O)c1cccs1)c1ccccc1 (stereo not drawn)
Response: < 1 ×10⁻⁶ cm/s

Request: Hello, please tell me recorded Papp for this one: CCN1C(=O)c2ccccc2S(=O)c2ccc(NC(=O)Cc3ccc(F)cc3)cc21 (stereo not drawn)
Response: > 1000 ×10⁻⁶ cm/s

Request: Hello, please tell me recorded Papp for this one: `Cc1ccccc1S(=O)(=O)Nc1cnccc1C(=O)Nc1nc(-c2ccccc2)cs1`
Response: > 1000 ×10⁻⁶ cm/s

Request: Hello, please tell me recorded Papp for this one: `CN1CCN(Cc2ccc(-c3ccc(C(C)(C)C#N)cc3)nc2)CC1`
Response: > 1000 ×10⁻⁶ cm/s

Cited source: PubChem BioAssay AID1508612
